Assignment: determine reported IC50 for the given molecules.
Biological target: Glucocorticoid receptor (Homo sapiens)
Sequence (P04150 whole entry): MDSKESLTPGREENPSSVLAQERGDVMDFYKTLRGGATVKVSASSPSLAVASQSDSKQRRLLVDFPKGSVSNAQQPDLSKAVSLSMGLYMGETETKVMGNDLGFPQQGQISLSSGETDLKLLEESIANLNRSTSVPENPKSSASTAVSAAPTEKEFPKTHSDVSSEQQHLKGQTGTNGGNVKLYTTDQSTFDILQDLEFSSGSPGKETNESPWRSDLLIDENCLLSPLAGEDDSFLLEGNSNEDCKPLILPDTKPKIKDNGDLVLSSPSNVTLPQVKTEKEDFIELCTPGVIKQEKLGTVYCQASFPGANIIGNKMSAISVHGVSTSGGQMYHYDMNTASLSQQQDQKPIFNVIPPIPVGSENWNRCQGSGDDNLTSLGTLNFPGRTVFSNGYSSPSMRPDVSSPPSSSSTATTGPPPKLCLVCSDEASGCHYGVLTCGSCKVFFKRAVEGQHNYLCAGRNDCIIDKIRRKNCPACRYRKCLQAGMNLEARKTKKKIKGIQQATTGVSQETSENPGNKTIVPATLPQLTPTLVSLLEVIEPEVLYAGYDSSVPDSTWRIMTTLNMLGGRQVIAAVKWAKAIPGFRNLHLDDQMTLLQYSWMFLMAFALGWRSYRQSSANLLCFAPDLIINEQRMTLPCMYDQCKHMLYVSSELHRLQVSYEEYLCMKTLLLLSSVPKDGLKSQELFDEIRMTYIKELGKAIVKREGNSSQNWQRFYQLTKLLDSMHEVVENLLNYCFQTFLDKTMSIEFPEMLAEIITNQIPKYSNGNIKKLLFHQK
Test: Agonist activity at GR expressed in IL-1beta- and TNFalpha-stimulated HepG2 cells assessed as inhibition of NFKB- or AP-1 mediated E-selectin transcription by luciferase reporter gene assay relative to Dexamethasone
Type: functional, cell-based
Please give a number only; it is taken to be in nM.

[in] Record request: IC50 value, item Cc1cc(-c2cccc3cc[nH]c23)cc2c1NC(C)(C)[C@H](O)[C@H]2C (racemic)
[out] 21

[in] Would you mind doing Cc1c(Cl)c(-c2cccc3cc[nH]c23)cc2c1NC(C)(C)[C@H](O)[C@H]2C (racemic) as well?
[out] 21

[in] Same for CC(=O)/C=C/c1c(-c2cccc3cc[nH]c23)cc(C)c2c1[C@H](C)[C@@H](O)C(C)(C)N2 (racemic)
[out] 7.8

[in] Now the molecule Cc1cc(-c2cccc3cc[nH]c23)c(/C=N/OC(C)(C)C)c2c1NC(C)(C)[C@H](O)[C@H]2C (racemic)
[out] 5.5

[in] // next record Cc1cc(-c2cccc3cc[nH]c23)c(/C=N/OCc2ccccc2)c2c1NC(C)(C)[C@H](O)[C@H]2C (racemic)
[out] 3.1

[in] Also, C[C@H]1c2c(cc(Cl)c(-c3cccc4cc[nH]c34)c2Cl)NC(C)(C)[C@@H]1O (racemic) please.
[out] 301

[in] Same read-out for C=Cc1c(-c2cccc3cc[nH]c23)cc2c(c1C)NC(C)(C)[C@H](O)[C@H]2C (racemic) ?
[out] 13

[in] Likewise for C[C@H]1c2c(F)c(-c3cccc4cc[nH]c34)c(F)c(Cl)c2NC(C)(C)[C@@H]1O (racemic) ?
[out] 3.9

[in] Same read-out for C[C@H]1c2c(cc(F)c(-c3cccc4cc[nH]c34)c2F)NC(C)(C)[C@@H]1O (racemic) ?
[out] 1.5

[in] Item: C[C@H]1c2c(Cl)c(-c3cccc4cc[nH]c34)cc(F)c2NC(C)(C)[C@@H]1O (racemic)
[out] 17

[in] And C[C@H]1c2c(F)c(-c3cccc4cc[nH]c34)c(F)c(F)c2NC(C)(C)[C@@H]1O (racemic) ?
[out] 3.8

[in] Entry Cc1cc(-c2cccc3cc[nH]c23)c(C#N)c2c1NC(C)(C)[C@H](O)[C@H]2C (racemic) please
[out] 5.3

[in] And Cc1cc(-c2cccc3cc[nH]c23)c(F)c2c1NC(C)(C)[C@H](O)[C@H]2C (racemic) ?
[out] 5.9

[in] Input CCc1c(-c2cccc3cc[nH]c23)cc(C)c2c1[C@H](C)[C@@H](O)C(C)(C)N2 (racemic)
[out] 15

[in] Again, but for Cc1c(-c2cccc3cc[nH]c23)cc2c(c1C)NC(C)(C)[C@H](O)[C@H]2C (racemic)
[out] 42

[in] Now consider Cc1cc(-c2cccc3cc[nH]c23)c(/C=C/C#N)c2c1NC(C)(C)[C@H](O)[C@H]2C (racemic) .
[out] 6.5

[in] And CO/N=C/c1c(-c2cccc3cc[nH]c23)cc(C)c2c1[C@H](C)[C@@H](O)C(C)(C)N2 (racemic) ?
[out] 1.7

[in] // same read-out, input: Cc1c(F)c(-c2cccc3cc[nH]c23)cc2c1NC(C)(C)[C@H](O)[C@H]2C (racemic)
[out] 1.7

[in] Thanks! And CCO/N=C/c1c(-c2cccc3cc[nH]c23)cc(C)c2c1[C@H](C)[C@@H](O)C(C)(C)N2 (racemic) ?
[out] 0.9

[in] Follow-up item: Cc1cc(-c2cccc3cc[nH]c23)c(/C=N/O)c2c1NC(C)(C)[C@H](O)[C@H]2C (racemic)
[out] 11

[in] And for Cc1cc(-c2cccc3cc[nH]c23)c(C)c2c1NC(C)(C)[C@H](O)[C@H]2C (racemic) ?
[out] 4.7

[in] Same again, this time with C[C@H]1c2cc(-c3cccc4cc[nH]c34)c(F)c(F)c2NC(C)(C)[C@@H]1O (racemic)
[out] 7.7
